Recorded relative integration efficiency (log2) by entry
System: VchCAST RNA-guided transposition machinery (E. coli BL21(DE3) host, lacZ target)
measurement notes: relative integration efficiency (T-RL orientation) vs wild-type transposon end (log2 (normalized fold change)); transposon end mutated: right end (5 bp flank + 75 bp right end); higher = more efficient transposition
metric: relative integration efficiency (log2)

[
  {
    "query sequence": "ACATTTGTGGATACAACCCTAAAATGATAATTACACCCATAAATTCATAATTATCACACCCAATTTAACTATAACGCTCTGATCATAGTCAGACCAACATTGCTACGACCCGTATTCGCACCGACAC",
    "tgt": "VchCAST RNA-guided transposition machinery (E. coli BL21(DE3) host, lacZ target)",
    "val": -5.07
  },
  {
    "query sequence": "ACATTTGTTGATACAACCATAAAATGATAATTACACCCATAAATGGATAATTATCACCCCCAATTTAACTATAACGCTCTGATCATAGTCAGACCAACATTGCTACGACCCGTATTCGCACCGACAC",
    "tgt": "VchCAST RNA-guided transposition machinery (E. coli BL21(DE3) host, lacZ target)",
    "val": -1.3
  },
  {
    "query sequence": "ACATTTGTTGATACAACCATAAAATGATAATTACCCCCATCAATTGATAATTATCCCACCCAATTTAACTATAACGCTCTGATCATAGTCAGACCAACATTGCTACGACCCGTATTCGCACCGACAC",
    "tgt": "VchCAST RNA-guided transposition machinery (E. coli BL21(DE3) host, lacZ target)",
    "val": -2.38
  },
  {
    "query sequence": "ACATTTGTTGATACACCCATAAATTGATATTGCCAACCATAAAATGATAATTATCACACCCATAAATTGATAATTACTCTGATCATAGTCAGACCAACATTGCTACGACCCGTATTCGCACCGACAC",
    "tgt": "VchCAST RNA-guided transposition machinery (E. coli BL21(DE3) host, lacZ target)",
    "val": -0.642
  },
  {
    "query sequence": "ACATTTGTTGATACAACCATAAAATGAGCATTACACCCATAAATTGATAATTATCACACCCATAAATTGATATTGCCTCTGATCATAGTCAGACCAACATTGCTACGACCCGTATTCGCACCGACAC",
    "tgt": "VchCAST RNA-guided transposition machinery (E. coli BL21(DE3) host, lacZ target)",
    "val": -0.394
  },
  {
    "query sequence": "ACATTTGTTGATATGTTGCAACCATAAAATGATAATTACACCCATAAATTGATAATTATCACACCCATAAATTGATATTGCCTCTGATCATAGTCAGACCAACATTGCTACGACCCGTATTCGCACC",
    "tgt": "VchCAST RNA-guided transposition machinery (E. coli BL21(DE3) host, lacZ target)",
    "val": -6.84
  },
  {
    "query sequence": "ACATTTGTTGATCAACCATAAAATGATAATTACACCCATAAATTGATAATTATCACACCCATAAATTGATATTGCCTCTGATCATAGTCAGACCAACATTGCTACGACCCGTATTCGCACCGACACT",
    "tgt": "VchCAST RNA-guided transposition machinery (E. coli BL21(DE3) host, lacZ target)",
    "val": -8.26
  },
  {
    "query sequence": "ACATTTGTTGATACAACCATAAAATGATAATTAACAAACGCCCGGTCGCCGGCGACACAAACGCCCGGTCGCGGTAAGAGGATCATAGTCAGACCAACATTGCTACGACCCGTATTCGCACCGACAC",
    "tgt": "VchCAST RNA-guided transposition machinery (E. coli BL21(DE3) host, lacZ target)",
    "val": -2.3
  },
  {
    "query sequence": "ACATTTGTTGATACAACCATAAAATGATAATTACACCCATTAATTGATAATTGTGACACCGAATTTAACTATAACGCTCTGATCATAGTCAGACCAACATTGCTACGACCCGTATTCGCACCGACAC",
    "tgt": "VchCAST RNA-guided transposition machinery (E. coli BL21(DE3) host, lacZ target)",
    "val": -1.29
  },
  {
    "query sequence": "ACATTTGTTGATACAACCATAAAATGATAATTACACCCATAAATTGATAATTATCACACCCATAAATTGATATTGCCTCTGATCAAATTGTGAGCGGATAACAATTTAGTCAGACCAGCACCGACAC",
    "tgt": "VchCAST RNA-guided transposition machinery (E. coli BL21(DE3) host, lacZ target)",
    "val": -0.232
  }
]

---

Test system: VchCAST RNA-guided transposition machinery (E. coli BL21(DE3) host, lacZ target)
measurement notes: relative integration efficiency (T-LR orientation) vs wild-type transposon end (log2 (normalized fold change)); transposon end mutated: left end; higher = more efficient transposition
Quick rule: relative integration efficiency (log2) of at least -1 means Fulfilled, below that means Not fulfilled.

[
  {
    "query sequence": "AATGTTGTTGATGCAACCATAAAGTGATATTTAGGCAGTGAGCGCAACGCAATTCTTAACCACAAAACAACCATATATTGATATCTCACAAAACAACCATAAGTTGATATTTTTGTGAATCGAGTATTTCAGCAAAACTACTGCAGTAAGAA",
    "tgt": "VchCAST RNA-guided transposition machinery (E. coli BL21(DE3) host, lacZ target)",
    "qualitative label": "Not fulfilled"
  },
  {
    "query sequence": "AATGTTGTTGATGCAACCATAAAGTGATATTTACGCCGGCGGGCGCCGACTACCAGGCCAACACCCCCAACCATATATTGATATCTCACAAAACAACCATAAGTTGATATTTTTGTGAATCGAGTATTTCAGCAAAACTACTGCAGTAAGAA",
    "tgt": "VchCAST RNA-guided transposition machinery (E. coli BL21(DE3) host, lacZ target)",
    "qualitative label": "Not fulfilled"
  },
  {
    "query sequence": "AATGTTGTTGATGCAACCATAAAGTGATATTTAATAATTATTTATAATCAGCAACTTCAACCATATATTGATATCTCAACCACAAAAACAAAACAACCATAAGTTGATATTTTTGTGAATCGAGTATTTCAGCAAAACTACTGCAGTAAGAA",
    "tgt": "VchCAST RNA-guided transposition machinery (E. coli BL21(DE3) host, lacZ target)",
    "qualitative label": "Not fulfilled"
  },
  {
    "query sequence": "AATGTTGTTGATGCAACCATAAAGTGATATTTAATAATTATTTATAATCAGCACAACCATATATTGATATCTCACAAAACAACCATAAGTTGATATTTTTGTGAATCGAGTATTTCAGCAAAACTACTGCAGTAAGAAAGTTACTTCGTGGT",
    "tgt": "VchCAST RNA-guided transposition machinery (E. coli BL21(DE3) host, lacZ target)",
    "qualitative label": "Not fulfilled"
  },
  {
    "query sequence": "TTTTGTGTTGAAACAACCATAAAGTGATAACAACGAATCAATTAAAATCATAGGCTTAATCGAAAAACAACCATATCTTGATATCGCATAAAACAACCATAAGTTGATATTTTTGTGAATAGGATATTCCAACCTTCATAGTTTAGTAAGAA",
    "tgt": "VchCAST RNA-guided transposition machinery (E. coli BL21(DE3) host, lacZ target)",
    "qualitative label": "Fulfilled"
  },
  {
    "query sequence": "AATGTTGTTGATGCAACCATAAAGTGATATTTAAGCCGGCGGGCGCCGACTACCAGGCCAACACCCCACCAACGCGCGGTCGCGAGACACCCCACCAACGCCTGGTCGCGGGGGTGTCCGATCTGATTTCAGCAAAACTACTGCAGTAAGAA",
    "tgt": "VchCAST RNA-guided transposition machinery (E. coli BL21(DE3) host, lacZ target)",
    "qualitative label": "Not fulfilled"
  },
  {
    "query sequence": "AATGTTGTTGATGCAACCATAAAGTGATATTTACAACCATATATTGATATCTCACAACAACCATAAGTTGATATTTTTGTGAATCGAGTATTTCAGCAAAACTACTGCAGTAAGAAAGTTACTTCGTGGTATGGGAGGATCAAGGAGCCAAT",
    "tgt": "VchCAST RNA-guided transposition machinery (E. coli BL21(DE3) host, lacZ target)",
    "qualitative label": "Fulfilled"
  },
  {
    "query sequence": "AATGTTGTTGATGCAACCATAAAGTGATATTTAATAATTATTTATAATCAGCAACTTAACCACAACCATATATTGATATCTCCAAAAACAAAACAACCATAAGTTGATATTTTTGTGAATCGAGTATTTCAGCAAAACTACTGCAGTAAGAA",
    "tgt": "VchCAST RNA-guided transposition machinery (E. coli BL21(DE3) host, lacZ target)",
    "qualitative label": "Not fulfilled"
  },
  {
    "query sequence": "AATGTTGTTGATGCAACCATAAAGTGATATTTAACAACCATATATTGATATCTCTAATTATTTATAATCAGCAACTTAACCACAAAAACAAAACAACCATAAGTTGATATTTTTGTGAATCGAGTATTTCAGCAAAACTACTGCAGTAAGAA",
    "tgt": "VchCAST RNA-guided transposition machinery (E. coli BL21(DE3) host, lacZ target)",
    "qualitative label": "Fulfilled"
  },
  {
    "query sequence": "AATGTTGTTGATGCAACCATAAAGTGATATTTACAACCATATATTGATATCTCACAAAACAACCATAAGTTGATATTTTTGTGAATCGAGTATTTCAGCAAAACTACTGCAGTAAGAAAGTTACTTCGTGGTATGGGAGGATCAAGGAGCCA",
    "tgt": "VchCAST RNA-guided transposition machinery (E. coli BL21(DE3) host, lacZ target)",
    "qualitative label": "Fulfilled"
  },
  {
    "query sequence": "AATGTTGTTGATGCAACCATAAATGTCGCGGGCCGCCGGCGGGCGCCGACTACCAGGCCAACACCCCACCAACGCGCGGTCGCGAGACACCCCACCAACGCCTGGTCGCGGGGGTGTCCGATCTGATTTCAGCAAAACTACTGCAGTAAGAA",
    "tgt": "VchCAST RNA-guided transposition machinery (E. coli BL21(DE3) host, lacZ target)",
    "qualitative label": "Not fulfilled"
  },
  {
    "query sequence": "AATGTTGTTGATGCAACCATAAAGTGATTAAATATAATTATTTATAATCAGCAACTTAACCACAAAACAACCATATATTGATTAGAGACAAAACAACCATAAGTTGATTAAAATGTGAATCGAGTATTTCAGCAAAACTACTGCAGTAAGAA",
    "tgt": "VchCAST RNA-guided transposition machinery (E. coli BL21(DE3) host, lacZ target)",
    "qualitative label": "Not fulfilled"
  },
  {
    "query sequence": "AATGTTGTTGATGCAACCATAAAGTGATATTTAATAGTACTGCGCGACTGAAATCATCATTAAAACGCAACCATATATTGATATCTCACAAAACAACCATAAGTTGATATTTTTGTGAATCGAGTATTTCAGCAAAACTACTGCAGTAAGAA",
    "tgt": "VchCAST RNA-guided transposition machinery (E. coli BL21(DE3) host, lacZ target)",
    "qualitative label": "Not fulfilled"
  },
  {
    "query sequence": "AATGTTGTTGATGCAACCATAAAGTGATATTTAACAACCATATATTGATATCTCACAAAACAACCATAAGTTGATATTTTTAATTATTTATAATCAGCAACTTAACCACAAAATGTGAATCGAGTATTTCAGCAAAACTACTGCAGTAAGAA",
    "tgt": "VchCAST RNA-guided transposition machinery (E. coli BL21(DE3) host, lacZ target)",
    "qualitative label": "Fulfilled"
  },
  {
    "query sequence": "AATGTTGTTGATGTAATTATCATTTTATGGTTGATAATTATTTATAATCAGCAACTTAACCACAAAATAATTATCATTTTATGGTTGACAAAACAACCATAAAATGATAATTATGTGAATCGAGTATTTCAGCAAAACTACTGCAGTAAGAA",
    "tgt": "VchCAST RNA-guided transposition machinery (E. coli BL21(DE3) host, lacZ target)",
    "qualitative label": "Not fulfilled"
  },
  {
    "query sequence": "AATGTTGTTGATGCAACCATAAAGTGATATTTATACCGTTCGTATAATGTATGCTATACCAAGTTATCAACCATATATTGATATCTCACAAAACAACCATAAGTTGATATTTTTGTGAATCGAGTATTTCAGCAAAACTACTGCAGTAAGAA",
    "tgt": "VchCAST RNA-guided transposition machinery (E. coli BL21(DE3) host, lacZ target)",
    "qualitative label": "Not fulfilled"
  },
  {
    "query sequence": "AATGTTGTTGATGCAACCATAAAGTGATATTTAATAATTATTTATACAACCATATATTGATATCTCATCAGCAACTTAACCACAAAAACAAAACAACCATAAGTTGATATTTTTGTGAATCGAGTATTTCAGCAAAACTACTGCAGTAAGAA",
    "tgt": "VchCAST RNA-guided transposition machinery (E. coli BL21(DE3) host, lacZ target)",
    "qualitative label": "Not fulfilled"
  }
]
